Parameter Emax: see the listing below.
biological target: Human TREM2 (Homo sapiens, UniProt Q9NZC2); construct: expressed in transfected cells; assay: Human TREM2 activity: cellular phosphorylation of Syk (AlphaLISA SureFire Ultra p-SYK) in HEK293/DAP12+TREM2 stable cell line; assay type: cell-based; settings: HEK293; maximal response relative to reference agonist example 1B (remaining examples); read-out: Emax
Sequence (Q9NZC2 19-230): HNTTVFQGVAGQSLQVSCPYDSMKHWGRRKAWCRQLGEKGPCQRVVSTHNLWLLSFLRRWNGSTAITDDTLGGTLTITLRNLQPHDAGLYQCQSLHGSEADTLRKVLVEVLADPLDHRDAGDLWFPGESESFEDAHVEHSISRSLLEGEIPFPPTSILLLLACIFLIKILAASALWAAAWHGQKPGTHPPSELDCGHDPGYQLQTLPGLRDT
Sequence (O43914 22-113 partner): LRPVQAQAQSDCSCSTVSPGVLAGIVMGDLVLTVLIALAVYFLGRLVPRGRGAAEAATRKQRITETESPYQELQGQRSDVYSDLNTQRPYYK

INSERT INTO assay_data (compound, assayed_system, measured_metric, reading) VALUES
  ('Cc1nc2c(-c3ccc(Cl)cc3F)nc(N3C[C@H](c4cnn(C)c4)OC(F)(F)C3)nc2c(=O)n1C (single isomer, unassigned) [Example 149B]', 'Human TREM2 (Homo sapiens, UniProt Q9NZC2)', 'Emax', '< 75%'),
  ('Cc1cc([C@H]2C[C@H](c3nc(-c4ccc(Cl)cc4F)c4nc(C)n(C)c(=O)c4n3)CCO2)ccn1 (single isomer, unassigned) [Example 95]', 'Human TREM2 (Homo sapiens, UniProt Q9NZC2)', 'Emax', '< 75%'),
  ('Cc1nc2c(-c3ccc(Cl)cc3F)nc(N3CC(COc4cnn(C)c4)C3)nc2c(=O)n1C [Example 15]', 'Human TREM2 (Homo sapiens, UniProt Q9NZC2)', 'Emax', '< 75%'),
  ('Cc1nc2c(-c3ccc(Cl)cc3F)cc(N3C[C@@H](c4cnn(C)c4)OC(C)(C)C3)cc2c(=O)n1C (single isomer, unassigned) [Example 117A]', 'Human TREM2 (Homo sapiens, UniProt Q9NZC2)', 'Emax', '75 to 110%'),
  ('Cc1cc([C@@H]2CN(c3nc(-c4ccc(C(F)(F)F)cc4F)c4nc(C)n(C)c(=O)c4n3)C[C@H](C)O2)ccn1 (single isomer, unassigned) [Example 179A]', 'Human TREM2 (Homo sapiens, UniProt Q9NZC2)', 'Emax', '75 to 110%');

Would you kindly look at the next entry?
Endpoint output: Emax of Cc1nc2c(-c3ccc(Cl)cc3F)nc(N3C[C@@H](c4cnn(C)n4)OC(C)(C)C3)cc2c(=O)n1C (single isomer, unassigned) [Example 147A] . Value?
< 75%

====

target: Human TREM2 (Homo sapiens, UniProt Q9NZC2); construct: expressed in transfected cells; assay: Human TREM2 activity: cellular phosphorylation of Syk (AlphaLISA SureFire Ultra p-SYK) in HEK293/DAP12+TREM2 stable cell line; type: cell-based; conditions: phospho-Syk AlphaLISA signal, HEK293/DAP12+TREM2 cells; concentration giving 50% of maximal response; read-out: EC50
pEC50: −log10 of the molar value. Structures can show the parent of a compound that is named as a salt.
Parameter pEC50: see the listing below.

Some solved entries appear below for comparison.
INSERT INTO assay_data (compound, measured_metric, reading) VALUES
  ('Cc1nc2c(-c3ccc(Cl)cc3F)nc(N3CCOC(c4cnn(C5CNC5)c4)C3)nc2c(=O)n1C (stereo not drawn) [Example 41, hydrochloride salt]', 'pEC50', '6.00 to 7.00'),
  ('Cc1nc2c(-c3ccc(Cl)cc3F)nc(N3CCOC(c4cnn(C)c4)C3)nc2c(=O)n1C (stereo not drawn)', 'pEC50', '7.00 to 8.00'),
  ('Cc1nc2c(-c3ccc(C(F)(F)F)nc3)nc(N3C[C@@H](C)O[C@@H](c4cnn(C5CC5)c4)C3)cc2c(=O)n1C (single isomer, unassigned) [Example 184B]', 'pEC50', '7.00 to 8.00'),
  ('Cc1nc2c(-c3ccc(Cl)cc3F)nc([C@@H]3CCO[C@H](c4cnn(C)c4)C3)nc2c(=O)n1C (single isomer, unassigned)', 'pEC50', '6.00 to 7.00'),
  ('Cc1nc2c(-c3ccc(Cl)cc3F)nc(N3C[C@@H](c4cnn(C)c4)OC(C)(C)C3)nc2c(=O)n1C (single isomer, unassigned) [Example 89A]', 'pEC50', '7.00 to 8.00'),
  ('Cc1cc([C@@H]2CN(c3nc(-c4ccc(C(F)(F)F)nc4)c4nc(C)n(C)c(=O)c4n3)CC(C)(C)O2)ccn1 (single isomer, unassigned) [Example 164A]', 'pEC50', '7.00 to 8.00'),
  ('Cc1nc2c(-c3ccc(Cl)cc3F)nc(N3CCO[C@H](c4cnn(C)c4)C3)nc2c(=O)[nH]1 (single isomer, unassigned) [Example 203A]', 'pEC50', '6.00 to 7.00'),
  ('Cc1nc2c(-c3ccc(Cl)cc3F)nc(N3C[C@@H](c4cnn(C)c4)OC(C)(C)C3)cc2c(=O)n1C (single isomer, unassigned) [Example 112A]', 'pEC50', '7.00 to 8.00');

Endpoint output: pEC50 of Cc1nc2c(-c3ccc(Cl)cc3F)nc([C@H]3C[C@@H](c4cnn(C)c4)OC(C)(C)C3)nc2c(=O)n1C (single isomer, unassigned) [Example 111A] . Value?
7.00 to 8.00

Cc1cc([C@H]2CN(c3cc4c(=O)n(C)c(C)nc4c(-c4ccc(C(F)(F)F)nc4)n3)C[C@@H](C)O2)ccn1 (single isomer, unassigned) [Example 199B] ?
> 9.00

Cc1ncc([C@H]2C[C@@H](c3nc(-c4ccc(Cl)cc4F)c4nc(C)n(C)c(=O)c4n3)CCO2)cn1 (racemic) ?
6.00 to 7.00

Cn1cc([C@@H]2CN(c3nc(-c4ccc(F)cc4F)c4nc(C(F)(F)F)n(C)c(=O)c4n3)CC3(CC3)O2)cn1 (single isomer, unassigned) [Example 165A] ?
8.00 to 9.00

Cc1cc([C@H]2CN(c3cc4c(=O)n(C)c(C)nc4c(-c4ccc(C(F)F)nc4)n3)CC(C)(C)O2)ccn1 (single isomer, unassigned) [Example 180B] ?
7.00 to 8.00

Cc1nnc(C2CN(c3nc(-c4ccc(Cl)cc4F)c4nc(C)n(C)c(=O)c4n3)CCO2)o1 (stereo not drawn) ?
7.00 to 8.00

Cc1nc2c(-c3ccc(Cl)cc3F)nc(N3CCCC(N4CCOCC4)C3)nc2c(=O)n1C (stereo not drawn) ?
6.00 to 7.00
